Entry source: the supplement of paper PMC10724198

Test system: Saccharomyces cerevisiae
Assay: protein stability index of tFT-peptide fusion (C-terminal peptide) (PSI (0-1 scale)); higher = more stable (slower turnover)
Details: genetic background: das1 deletion; temperature: 30 C
Experimental endpoint: protein stability index
Respond using a number only.

Please review the entries below; each comes with its answer.
Seq string	Target entity	protein stability index
ERKPLDFLRTAK [MRPL39 C-terminal 12 aa]	Saccharomyces cerevisiae	0.674
SQAIPKKKKVLE [MEK1 C-terminal 12 aa]	Saccharomyces cerevisiae	0.694
LSLRTKNTENKE [YGL159W C-terminal 12 aa]	Saccharomyces cerevisiae	0.716
HPWFAEYYHHAS [PHO85 C-terminal 12 aa]	Saccharomyces cerevisiae	0.744
ESLQKNIKIETK [MUM3 C-terminal 12 aa]	Saccharomyces cerevisiae	0.698
SPFIPKKRKPRS [SEN1 C-terminal 12 aa]	Saccharomyces cerevisiae	0.698

Per the records, this sequence ( KTFSYKRPSTFY [RPL20A C-terminal 12 aa] ) has protein stability index equal to 0.674

Per the records, this sequence ( VKDIHGRIPEML [AXL2 C-terminal 12 aa] ) has protein stability index equal to 0.695

Per the records, this sequence ( GRPSMVPIAELK [MLH3 C-terminal 12 aa] ) has protein stability index equal to 0.672

Per the records, this sequence ( DQPFYKSLFSRK [HXT1 C-terminal 12 aa] ) has protein stability index equal to 0.712

Per the records, this sequence ( SILGMQDMWKAT [PEX11 C-terminal 12 aa] ) has protein stability index equal to 0.707

Per the records, this sequence ( TESENDALDDLL [TLG2 C-terminal 12 aa] ) has protein stability index equal to 0.714

Per the records, this sequence ( QLENKLEILKQK [SPC19 C-terminal 12 aa] ) has protein stability index equal to 0.699

Per the records, this sequence ( QQSESLPQQTTA [PIL1 C-terminal 12 aa] ) has protein stability index equal to 0.705

Per the records, this sequence ( EGWNSDNVYKLS [CYC2 C-terminal 12 aa] ) has protein stability index equal to 0.721

Per the records, this sequence ( EKKRVLNAVCGL [YLR412C-A C-terminal 12 aa] ) has protein stability index equal to 0.69

Per the records, this sequence ( EYPWEKPKTLKF [SAM1 C-terminal 12 aa] ) has protein stability index equal to 0.717

Per the records, this sequence ( TWFKYFKWLDMF [MRX3 C-terminal 12 aa] ) has protein stability index equal to 0.772

Per the records, this sequence ( DKSTFGLSPVKI [GRS2 C-terminal 12 aa] ) has protein stability index equal to 0.691

Per the records, this sequence ( QSLYKDATSHWL [GYP1 C-terminal 12 aa] ) has protein stability index equal to 0.709

Per the records, this sequence ( PDMIEELDLHED [GPD1 C-terminal 12 aa] ) has protein stability index equal to 0.716

Per the records, this sequence ( IHCRSQNCLSLS [VBA4 C-terminal 12 aa] ) has protein stability index equal to 0.687

Per the records, this sequence ( VAEKIPENETTH [ISW1 C-terminal 12 aa] ) has protein stability index equal to 0.692

Per the records, this sequence ( SSNFASNIFSLF [YBR089W C-terminal 12 aa] ) has protein stability index equal to 0.735

Per the records, this sequence ( CGLDGKIVIYTI [ARC40 C-terminal 12 aa] ) has protein stability index equal to 0.682

###

System: Saccharomyces cerevisiae
Test: protein stability index of tFT-peptide fusion in wild type (PSI (0-1 scale)); higher = more stable (slower turnover)
Conditions: genetic background: wild type
Experimental endpoint: protein stability index
Respond using a number only.

Please review the entries below; each comes with its answer.
Seq string	protein stability index
LKILRQKMNHVN	0.206
LKNLRQKMNHQN	0.208
RLSQPLPVQFLN	0.0622

Per the records, this sequence ( KKHKKGRKQKIN ) has protein stability index equal to 0.0973

Per the records, this sequence ( PDKRNHLIKYLN ) has protein stability index equal to 0.0757

Per the records, this sequence ( RVTRLDAIYFRA ) has protein stability index equal to 0.608

Per the records, this sequence ( RLIQPLPTQFLN ) has protein stability index equal to 0.215

Per the records, this sequence ( NTSCGYKFRTNN ) has protein stability index equal to 0.217

Per the records, this sequence ( KVHKKGQKQKIN ) has protein stability index equal to 0.0686

Per the records, this sequence ( CLVSLPILCFFR ) has protein stability index equal to 0.0771

Per the records, this sequence ( ARWRVGLWRGAN ) has protein stability index equal to 0.121

Per the records, this sequence ( HLIQPLPVQFLN ) has protein stability index equal to 0.13

Per the records, this sequence ( LKILRQKMNHQT ) has protein stability index equal to 0.252

Per the records, this sequence ( PDKRNHQIKLLN ) has protein stability index equal to 0.127

Per the records, this sequence ( RVTRLDAIYFRII ) has protein stability index equal to 0.0611

Per the records, this sequence ( RLNQPLPVQFLN ) has protein stability index equal to 0.0569

Per the records, this sequence ( GLYMCSVGCWFRD ) has protein stability index equal to 0.431

###

System: Saccharomyces cerevisiae
Assay: protein stability index of tFT-peptide fusion (C-terminal peptide) (PSI (0-1 scale)); higher = more stable (slower turnover)
Conditions: genetic background: doa10 deletion; temperature: 30 C
protein stability index values, listed per item

Seq string	Assay result
CLRVSFFFWLFA	0.224
VLVVTAFTFSCP	0.319
SVFFRPVLICCA	0.0558
GFSPLFVLVFGV	0.333
LFRGVWYYFLVR	0.504

Per the records, this sequence ( CFSIPLVILNVL ) has protein stability index equal to 0.335

###

Test system: Saccharomyces cerevisiae
Experiment: protein stability index of tFT-peptide fusion (C-terminal peptide) (PSI (0-1 scale)); higher = more stable (slower turnover)
Settings: genetic background: das1 deletion; temperature: 30 C
protein stability index values, listed per item
Respond using a number only.

Please review the entries below; each comes with its answer.
Seq string	Experimental endpoint	Assay result
SIICIETNKAIR [HPM1 C-terminal 12 aa]	protein stability index	0.705
EEMEEFKKLVMG [MIC19 C-terminal 12 aa]	protein stability index	0.704
YVRFYRGKLNNP [YOL036W C-terminal 12 aa]	protein stability index	0.704
SSSSNFLEESSS [YER148W-A C-terminal 12 aa]	protein stability index	0.702
ILTLVETLSEQE [VMA22 C-terminal 12 aa]	protein stability index	0.704

Per the records, this sequence ( MVSSLRNANHIF [BCS1 C-terminal 12 aa] ) has protein stability index equal to 0.712

Per the records, this sequence ( EERKDALANNIK [CCS1 C-terminal 12 aa] ) has protein stability index equal to 0.679

Per the records, this sequence ( IPLVISYCISEE [ATX2 C-terminal 12 aa] ) has protein stability index equal to 0.575

Per the records, this sequence ( ATAREWTKKYAV [UBC4 C-terminal 12 aa] ) has protein stability index equal to 0.702

Per the records, this sequence ( DIEINDDLNGVL [VPS41 C-terminal 12 aa] ) has protein stability index equal to 0.653

Per the records, this sequence ( TDGPNEKWLPDY [SKS1 C-terminal 12 aa] ) has protein stability index equal to 0.71

Per the records, this sequence ( NDTEHVTLHTNT [YDL228C C-terminal 12 aa] ) has protein stability index equal to 0.711

Per the records, this sequence ( LIGGNTNDGLSK [CHA4 C-terminal 12 aa] ) has protein stability index equal to 0.683

Per the records, this sequence ( AKYALLEVLKVS [YOR102W C-terminal 12 aa] ) has protein stability index equal to 0.581

Per the records, this sequence ( RRPAVIKALRGE [URE2 C-terminal 12 aa] ) has protein stability index equal to 0.69

Per the records, this sequence ( SSTTALDALNKE [TGL1 C-terminal 12 aa] ) has protein stability index equal to 0.696

Per the records, this sequence ( DFLTLVQTNSDT [YPL250W-A C-terminal 12 aa] ) has protein stability index equal to 0.712

Per the records, this sequence ( RRTSSISTYLIL [YBL107W-A C-terminal 12 aa] ) has protein stability index equal to 0.735

Per the records, this sequence ( FFRLGWSTWLHY [YOR029W C-terminal 12 aa] ) has protein stability index equal to 0.502

Per the records, this sequence ( FSNLLWFDQNFA [STB4 C-terminal 12 aa] ) has protein stability index equal to 0.742

Per the records, this sequence ( VFKSKCKKIYIG [DGR1 C-terminal 12 aa] ) has protein stability index equal to 0.712

Per the records, this sequence ( VEHRYHKSVSRL [YBR012C C-terminal 12 aa] ) has protein stability index equal to 0.816
